These entries and their values trace back to patent US8889712B2.

# IC50 values compiled below
- experimental_target: XIAP BIR2-3 (Homo sapiens, UniProt P98170, C202A/C213G)
- Construct: His-BIR2-3 (125-356, C202A/C213G, XIAP)
- Sequence (P98170 125-356 C202A/C213G): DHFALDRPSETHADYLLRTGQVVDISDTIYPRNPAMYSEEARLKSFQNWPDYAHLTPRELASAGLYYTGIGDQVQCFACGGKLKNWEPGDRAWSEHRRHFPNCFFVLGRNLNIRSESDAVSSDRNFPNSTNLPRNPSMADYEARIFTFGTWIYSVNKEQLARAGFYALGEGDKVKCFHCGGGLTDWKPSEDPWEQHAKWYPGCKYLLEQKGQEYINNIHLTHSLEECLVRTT
- assay_explanation: XIAP-BIR2-3 dimeric SMAC Peptide Homogeneous Time Resolved Fluorescence (HTRF) Assay
- Type: binding
- assay_conditions: 0.5 nM N-His-BIR2-3 (125-356, C202A/C213G, XIAP), 20 nM fluorescein labeled dimeric SMAC peptide; HTRF signal; read-out: XIAP BIR2-3 IC50
Field format: number, assumed nM, no unit text.

CN[C@@H](C)C(=O)N[C@H](C(=O)N1C[C@@H](c2ccc3c(c2)CN(C(=O)[C@@H](NC(=O)[C@H](C)NC)C(C)(C)C)[C@H](C(=O)N[C@@H]2CCCc4ccccc42)C3)C[C@H]1C(=O)N[C@@H](Cc1ccccc1)C(=O)Nc1ccc(-n2cncn2)cc1)C(C)(C)C : 1.6
CN[C@@H](C)C(=O)N[C@H](C(=O)N1C[C@@H](c2ccc3c(c2)CN(C(=O)[C@@H](NC(=O)[C@H](C)NC)C(C)(C)C)[C@H](C(=O)N[C@@H]2CCCc4ccccc42)C3)C[C@H]1C(=O)N[C@@H](Cc1ccccc1)c1noc(C)n1)C(C)(C)C : 2.6
CN[C@@H](C)C(=O)N[C@H](C(=O)N1CC(c2ccc3c(c2)CN(C(=O)[C@@H](NC(=O)[C@H](C)NC)C(C)(C)SCC(=O)O)[C@H](C(=O)NC2CCCc4ccccc42)C3)C[C@H]1C(=O)NC1CCCc2ccccc21)C(C)(C)C (stereo partly shown) : 1.9

Moving on to another compound below.
Q. Form field: IC50 recorded for CN[C@@H](C)C(=O)N[C@H](C(=O)N1C[C@@H](c2ccc3c(c2)CN(C(=O)[C@@H](NC(=O)[C@H](C)NC)C(C)(C)C)[C@H](C(=O)N[C@@H]2CCCc4ccccc42)C3)C[C@H]1C(=O)N[C@@H](Cc1ccccc1)c1nnc(C)o1)C(C)(C)C with XIAP BIR2-3 (Homo sapiens, UniProt P98170, C202A/C213G) (enter value)
A. 3.4

---

Collected IC50 values appear next to each entry.
- experimental_target: XIAP BIR3 (Homo sapiens, UniProt P98170)
- Construct: His-BIR3 (241-356, XIAP)
- Sequence (P98170 241-356): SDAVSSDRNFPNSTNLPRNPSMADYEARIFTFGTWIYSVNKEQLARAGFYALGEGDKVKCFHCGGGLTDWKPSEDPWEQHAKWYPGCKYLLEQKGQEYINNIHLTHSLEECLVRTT
- assay_explanation: XIAP-BIR3/SMAC Homogeneous Time Resolved Fluorescence (HTRF) Assay
- Type: binding
- assay_conditions: 1 nM N-His-BIR3 (241-356, XIAP), 5 nM fluorescein labeled SMAC peptide; HTRF signal; read-out: XIAP BIR3 IC50
Could you give the number and then its unit, please?

CN[C@@H](C)C(=O)N[C@H](C(=O)N1Cc2cc(C(=O)N[C@H]3C[C@@H](C(=O)N[C@@H]4CCCc5ccccc54)N(C(=O)[C@@H](NC(=O)[C@H](C)NC)C(C)(C)C)C3)ccc2C[C@H]1C(=O)N[C@@H]1CCCc2ccccc21)C(c1ccccc1)c1ccccc1 [Example 89] : 37.8 nM
CCC(CC)[C@H](NC(=O)[C@H](CC)NC)C(=O)N1Cc2cc(C(=O)N[C@H]3C[C@@H](C(=O)N[C@@H]4CCCc5ccccc54)N(C(=O)[C@@H](NC(=O)[C@H](C)NC)C(C)(C)C)C3)ccc2C[C@H]1C(=O)N[C@@H]1CCCc2ccccc21 [Example 19] : 7 nM
CN[C@@H](C)C(=O)N[C@H](C(=O)N1Cc2cc([C@H]3C[C@@H](C(=O)N[C@@H](Cc4ccccc4)C(=O)O)N(C(=O)[C@@H](NC(=O)[C@H](C)NC)C(C)(C)C)C3)ccc2C[C@H]1C(=O)N[C@@H](Cc1ccccc1)C(=O)O)C(C)(C)C [Example 86] : 5 nM
CN[C@@H](C)C(=O)N[C@H](C(=O)N1C[C@@H](c2ccc3c(c2)CN(C(=O)[C@@H](NC(=O)[C@H](C)NC)C(C)(C)C)[C@H](C(=O)N[C@@H]2CCCc4ccccc42)C3)C[C@H]1C(=O)N[C@@H](Cc1ccccc1)C(=O)Nc1cccc(-c2cnco2)c1)C(C)(C)C [Example 58] : 7.6 nM
CN[C@@H](C)C(=O)N[C@H](C(=O)N1Cc2ccc(C(=O)N[C@H]3C[C@@H](C(=O)N[C@@H]4CCCc5ccccc54)N(C(=O)[C@@H](NC(=O)[C@H](C)NC)C(C)(C)C)C3)cc2C[C@H]1C(=O)N[C@@H]1CCCc2ccccc21)C(C)(C)C [Example 25] : 4 nM

Attention now shifts to the item below.
Q. Bench note: what IC50 did CN[C@@H](C)C(=O)N[C@H](C(=O)N1C[C@@H](c2ccc3c(c2)CN(C(=O)[C@@H](NC(=O)[C@H](C)NC)C(C)(C)C)[C@H](C(=O)N[C@@H]2CCOc4ccccc42)C3)C[C@H]1C(=O)N[C@@H]1CCCc2ccccc21)C(C)(C)C [Example 33] show?
A. 1.8 nM

---

- experimental_target: XIAP BIR3 (Homo sapiens, UniProt P98170)
- Construct: His-BIR3 (241-356, XIAP)
- assay_explanation: XIAP-BIR3/SMAC Homogeneous Time Resolved Fluorescence (HTRF) Assay
- Format: binding
- assay_conditions: 1 nM N-His-BIR3 (241-356, XIAP), 5 nM fluorescein labeled SMAC peptide; HTRF signal; read-out: XIAP BIR3 IC50
readout_kind: IC50
Answer format: number, then unit.

Solved entries (count: 5):
CN[C@@H](C)C(=O)N[C@H](C(=O)N1C[C@@H](c2ccc3c(c2)CN(C(=O)[C@@H](NC(=O)[C@H](C)NC)C(C)(C)C)[C@H](C(=O)N[C@@H]2CCCc4ccccc42)C3)C[C@H]1C(=O)N[C@@H](Cc1ccccc1)C(=O)NS(=O)(=O)C1CC1)C(C)(C)C [Example 50] : 0.9 nM
CN[C@@H](C)C(=O)N[C@H](C(=O)N1C[C@@H](c2ccc3c(c2)CN(C(=O)[C@@H](NC(=O)[C@H](C)NC)C(C)(C)SCCO)[C@H](C(=O)N[C@@H]2CCCc4ccccc42)C3)C[C@H]1C(=O)N[C@@H]1CCCc2ccccc21)C(C)(C)C [Example 28] : 5.1 nM
CN[C@@H](C)C(=O)N[C@H](C(=O)N1Cc2cc([C@H]3C[C@@H](C(=O)N[C@@H](Cc4ccc5ccccc5c4)C(=O)OC)N(C(=O)[C@@H](NC(=O)[C@H](C)NC)C(C)(C)C)C3)ccc2C[C@H]1C(=O)N[C@@H](Cc1ccc2ccccc2c1)C(=O)OC)C(C)(C)C [Example 82] : 111 nM
CN[C@@H](C)C(=O)N[C@@H](CC1CCCCC1)C(=O)N1Cc2cc(C(=O)N[C@H]3C[C@@H](C(=O)N[C@@H]4CCCc5ccccc54)N(C(=O)[C@@H](NC(=O)[C@H](C)NC)C(C)(C)C)C3)ccc2C[C@H]1C(=O)N[C@@H]1CCCc2ccccc21 [Example 9] : 33 nM
CN[C@@H](C)C(=O)N[C@H](C(=O)N1C[C@@H](c2ccc3c(c2)CN(C(=O)[C@@H](NC(=O)[C@H](C)NC)C(C)(C)C)[C@H](C(=O)N[C@@H]2CCCc4ccccc42)C3)C[C@H]1C(=O)N[C@@H](Cc1ccccc1)c1ncc(C)o1)C(C)(C)C [Example 81] : 13.5 nM

Q. # lookup: IC50 of CN[C@@H](C)C(=O)N[C@H](C(=O)N1C[C@@H](c2ccc3c(c2)CN(C(=O)[C@@H](NC(=O)[C@H](C)NC)C(C)(C)C)[C@H](C(=O)N[C@@H]2CCCc4ccccc42)C3)C[C@H]1C(=O)N[C@@H](Cc1ccccc1)C(N)=O)C(C)(C)C [Example 46]
A. 10.2 nM

Q. Using the record for CN[C@@H](C)C(=O)N[C@H](C(=O)N1Cc2cc(C(=O)N[C@H]3C[C@@H](C(=O)NC4CCCc5ccccc54)N(C(=O)[C@@H](NC(=O)[C@H](C)NC)C(C)(C)C)C3)ccc2C[C@H]1C(=O)NC1CCCc2ccccc21)C1CCOCC1 (stereo partly drawn) [Example 13] , report its IC50.
A. 6 nM

Q. Could you share which IC50 value was measured for CN[C@@H](C)C(=O)N[C@H](C(=O)N1C[C@@H](c2ccc3c(c2)CN(C(=O)[C@@H](NC(=O)[C@H](C)NC)C(C)(C)C)[C@H](C(=O)N[C@@H]2CCCc4ccccc42)C3)C[C@H]1C(=O)N[C@@H](Cc1ccccc1)C(=O)N1CCOCC1)C(C)(C)C [Example 47] ?
A. 17.5 nM

Q. Consider the molecule CCC(CC)[C@H](NC(=O)[C@H](C)NC)C(=O)N1Cc2cc(C(=O)N[C@H]3C[C@@H](C(=O)N[C@@H]4CCCc5ccccc54)N(C(=O)[C@@H](NC(=O)[C@H](C)NC)C(C)(C)C)C3)ccc2C[C@H]1C(=O)N[C@@H]1CCCc2ccccc21 [Example 8] and give its measured IC50.
A. 11 nM
